Numbers sourced from ChEMBL document CHEMBL5505979.

Test system: Staphylococcus aureus
protocol.description: Anti-bacterial activity against Staphylococcus aureus CMCC (B) 26001 assessed as inhibition of bacterial growth
Format: functional
Record form. Attribute: log10 of MIC. Fill in for each entry.
Base-10 log of MIC, unit µM.

*Q* log10 of MIC for CCOC(=O)C1=C(CN2CCN(C(=O)/C(=N/OC)c3csc(N)n3)CC2)NC(=O)NC1c1ccc(F)cc1 (configuration not stated) ?
*A* 1.77

*Q* log10 of MIC for CCOC(=O)C1=C(CN2CCN(C(=O)/C(=N/OC)c3csc(N)n3)CC2)NC(=O)NC1c1nccs1 (configuration not stated) ?
*A* 1.78

*Q* log10 of MIC for CCCCc1nc(Cl)c(C2NC(=O)NC(CN3CCN(CC(=O)c4ccc(Cl)cc4)CC3)=C2C(=O)OCC)[nH]1 (configuration not stated) ?
*A* 1.45

*Q* log10 of MIC for CCOC(=O)C1=C(CN2CCNCC2)NC(=O)NC1c1ccc2c(c1)c1ccccc1n2CC (configuration not stated) ?
*A* 2.05

*Q* log10 of MIC for CCCCc1nc(Cl)c(C2NC(=O)NC(CN3CCN(CC(=O)c4ccc(C)cc4)CC3)=C2C(=O)OCC)[nH]1 (configuration not stated) ?
*A* 1.76

*Q* log10 of MIC for CCOC(=O)C1=C(CN2CCN(C(=O)/C(=N/OC)c3csc(N)n3)CC2)NC(=O)NC1c1ccc(O)c(Br)c1 (configuration not stated) ?
*A* 1.72

*Q* log10 of MIC for CCn1cc(C(=O)O)c(=O)c2cc(F)c(N3CCNCC3)cc21 [NORFLOXACIN] ?
*A* 0.78

*Q* log10 of MIC for CCOC(=O)C1=C(CN2CCN(C(=O)/C(=N/OC)c3csc(N)n3)CC2)NC(=O)NC1c1ccc(F)cc1F (configuration not stated) ?
*A* 1.76

*Q* log10 of MIC for CCOC(=O)C1=C(CN2CCN(C(=O)/C(=N/OC)c3csc(N)n3)CC2)NC(=O)NC1c1ccc(Cl)cc1Cl (configuration not stated) ?
*A* 1.73

*Q* log10 of MIC for CCOC(=O)C1=C(CN2CCN(C(=O)/C(=N/OC)c3csc(N)n3)CC2)NC(=O)NC1c1ccc(O)c(OC)c1 (configuration not stated) ?
*A* 1.75

*Q* log10 of MIC for CCOC(=O)C1=C(CN2CCN(C(=O)/C(=N/OC)c3csc(N)n3)CC2)NC(=O)NC1c1ccc(OC)c(OC)c1OC (configuration not stated) ?
*A* 2.62

*Q* log10 of MIC for CCOC(=O)C1=C(CN2CCN(C(=O)/C(=N/OC)c3csc(N)n3)CC2)NC(=O)NC1c1ccc(C#N)cc1 (configuration not stated) ?
*A* 2.37

*Q* log10 of MIC for CCOC(=O)C1=C(CN2CCN(C(=O)/C(=N/OC)c3csc(N)n3)CC2)NC(=O)NC1c1ccc(OC)cc1 (configuration not stated) ?
*A* 1.76

*Q* log10 of MIC for CCCCc1nc(Cl)c(C2NC(=O)NC(CN3CCN(CC(=O)c4nccs4)CC3)=C2C(=O)OCC)[nH]1 (configuration not stated) ?
*A* 1.18

*Q* log10 of MIC for CCOC(=O)C1=C(CN2CCN(C(=O)/C(=N/OC)c3csc(N)n3)CC2)NC(=O)NC1c1ccc(C(F)(F)F)cc1 (configuration not stated) ?
*A* 1.73

*Q* log10 of MIC for CCOC(=O)C1=C(CN2CCN(C(=O)/C(=N/OC)c3csc(N)n3)CC2)NC(=O)NC1c1cccs1 (configuration not stated) ?
*A* 2.38

*Q* log10 of MIC for CCCCc1nc(Cl)c(C2NC(=O)NC(CN3CCN(C(=O)/C(=N/OC)c4csc(N)n4)CC3)=C2C(=O)OCC)[nH]1 (configuration not stated) ?
*A* 1.41
